ASSAY_SYSTEM: bradykinin 1 receptor (B1R) of the rat (Rattus norvegicus)
Construct: expressed in transfected cells; host or cells: CHO K1 cells
Sequence (P97583 whole entry): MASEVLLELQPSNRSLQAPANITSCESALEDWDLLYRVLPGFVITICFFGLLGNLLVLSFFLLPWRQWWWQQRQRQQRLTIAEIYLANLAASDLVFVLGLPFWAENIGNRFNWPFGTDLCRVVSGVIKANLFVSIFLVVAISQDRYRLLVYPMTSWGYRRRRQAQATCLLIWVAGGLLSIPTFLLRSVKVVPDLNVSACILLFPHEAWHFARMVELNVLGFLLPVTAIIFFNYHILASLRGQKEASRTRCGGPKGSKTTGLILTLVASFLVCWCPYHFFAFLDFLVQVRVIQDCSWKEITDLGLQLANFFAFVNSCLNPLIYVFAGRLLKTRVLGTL
MEASUREMENT_NOTES: Functional investigation on the rat bradykinin 1 receptor (B1R), Ca2+ FLIPR assay in CHO K1 rB1R cells
Type: cell-based
MEASUREMENT_CONDITIONS: CHO-K1, B1R antagonism rat; test substance 10 μM; Ca2+ FLIPR, CHO K1 rB1R cells; read-out: B1R Ant. r [10 μM] % Inhibition
READOUT_LABEL: inhibition at 10 µM

[
  {
    "COMPOUND": "CN(C)C(c1ccccc1)C1CCC(CNC(=O)COCCN(C)S(=O)(=O)c2ccc(Cl)cc2)CC1 (centres unmarked)",
    "ASSAY_SYSTEM": "bradykinin 1 receptor (B1R) of the rat (Rattus norvegicus)",
    "READOUT_LABEL": "inhibition at 10 µM",
    "DATA_VALUE": "10%"
  },
  {
    "COMPOUND": "COc1cc(C)c(S(=O)(=O)N2CCCC(COCC(=O)NCC3CCC(C(CCc4ccccc4)N4CCOCC4)CC3)C2)c(C)c1 (centres unmarked)",
    "ASSAY_SYSTEM": "bradykinin 1 receptor (B1R) of the rat (Rattus norvegicus)",
    "READOUT_LABEL": "inhibition at 10 µM",
    "DATA_VALUE": "43%"
  },
  {
    "COMPOUND": "COc1cc(C)c(S(=O)(=O)N2CCN(CCOCC(=O)NCCC3CCC(C(c4cccc(F)c4)N(C)C)CC3)CC2)c(C)c1C (centres unmarked)",
    "ASSAY_SYSTEM": "bradykinin 1 receptor (B1R) of the rat (Rattus norvegicus)",
    "READOUT_LABEL": "inhibition at 10 µM",
    "DATA_VALUE": "-3%"
  },
  {
    "COMPOUND": "COc1ccccc1-c1noc(C(=O)NCC(=O)NC2CCC(C(c3ccccc3)N(C)C)CC2)n1 (centres unmarked)",
    "ASSAY_SYSTEM": "bradykinin 1 receptor (B1R) of the rat (Rattus norvegicus)",
    "READOUT_LABEL": "inhibition at 10 µM",
    "DATA_VALUE": "22%"
  },
  {
    "COMPOUND": "COc1cc(C)c(S(=O)(=O)N2CCC(OCC(=O)NC3CCC(C(c4ccccc4)N4CCN(C)CC4)CC3)C2)c(C)c1 (centres unmarked)",
    "ASSAY_SYSTEM": "bradykinin 1 receptor (B1R) of the rat (Rattus norvegicus)",
    "READOUT_LABEL": "inhibition at 10 µM",
    "DATA_VALUE": "94%"
  },
  {
    "COMPOUND": "COc1cc(C)c(S(=O)(=O)N2CCCC(OCC(=O)NCCC3CCC(C(c4cccs4)N(C)C)CC3)C2)c(C)c1C (centres unmarked)",
    "ASSAY_SYSTEM": "bradykinin 1 receptor (B1R) of the rat (Rattus norvegicus)",
    "READOUT_LABEL": "inhibition at 10 µM",
    "DATA_VALUE": "15%"
  },
  {
    "COMPOUND": "COc1cc(C)c(S(=O)(=O)N2CCC(OCC(=O)NCC3CCC(C(c4cccs4)N(C)C)CC3)CC2)c(C)c1C (centres unmarked)",
    "ASSAY_SYSTEM": "bradykinin 1 receptor (B1R) of the rat (Rattus norvegicus)",
    "READOUT_LABEL": "inhibition at 10 µM",
    "DATA_VALUE": "-10%"
  },
  {
    "COMPOUND": "CN(CCOCC(=O)NC1CCC(C(c2ccccc2)N2CCOCC2)CC1)S(=O)(=O)c1ccc(Cl)cc1Cl (centres unmarked)",
    "ASSAY_SYSTEM": "bradykinin 1 receptor (B1R) of the rat (Rattus norvegicus)",
    "READOUT_LABEL": "inhibition at 10 µM",
    "DATA_VALUE": "23%"
  },
  {
    "COMPOUND": "O=C(COCC1CCCN1S(=O)(=O)c1c(Cl)cc(Cl)cc1Cl)NCC1CCC(C(c2ccccc2)N2CCCC2)CC1 (centres unmarked)",
    "ASSAY_SYSTEM": "bradykinin 1 receptor (B1R) of the rat (Rattus norvegicus)",
    "READOUT_LABEL": "inhibition at 10 µM",
    "DATA_VALUE": "105%"
  },
  {
    "COMPOUND": "COc1cc(C)c(S(=O)(=O)N2CCC(OCC(=O)NCC3CCC(C(c4ccccc4)N(C)C)CC3)C2)c(C)c1C (centres unmarked)",
    "ASSAY_SYSTEM": "bradykinin 1 receptor (B1R) of the rat (Rattus norvegicus)",
    "READOUT_LABEL": "inhibition at 10 µM",
    "DATA_VALUE": "22%"
  },
  {
    "COMPOUND": "CN(CCOCC(=O)NCC1CCC(C(CCc2ccccc2)N2CCCC2)CC1)S(=O)(=O)c1c(Cl)cc(Cl)cc1Cl (centres unmarked)",
    "ASSAY_SYSTEM": "bradykinin 1 receptor (B1R) of the rat (Rattus norvegicus)",
    "READOUT_LABEL": "inhibition at 10 µM",
    "DATA_VALUE": "63%"
  }
]

The origin of these recorded values is patent US8106055B2.
